- Assayed system: Ileal sodium/bile acid cotransporter (Homo sapiens, UniProt Q12908)
- Sequence (Q12908 whole entry): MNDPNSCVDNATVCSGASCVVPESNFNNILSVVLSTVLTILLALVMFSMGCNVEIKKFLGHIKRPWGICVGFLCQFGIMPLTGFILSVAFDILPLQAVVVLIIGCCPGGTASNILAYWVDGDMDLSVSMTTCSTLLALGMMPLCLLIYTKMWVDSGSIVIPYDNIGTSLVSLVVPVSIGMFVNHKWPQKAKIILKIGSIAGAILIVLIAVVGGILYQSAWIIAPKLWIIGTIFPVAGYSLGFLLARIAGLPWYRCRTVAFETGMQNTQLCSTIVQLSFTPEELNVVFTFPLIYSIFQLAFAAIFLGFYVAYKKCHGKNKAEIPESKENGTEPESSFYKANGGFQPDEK
- Method description: Inhibition Assay: On the day of the uptake experiment, 10 mM HEPES was added to Hank's Balanced Salt Solution, and the pH was adjusted to 7.4 with TRIS (HBSSH). The assay buffer was prepared by adding 100 uM [3H]-taurocholate and 10 uM cold taurocholate to room temperature HBSSH. A separate washing buffer was prepared by adding 10 uM cold taurocholate to HBSSH (30 ml per assay plate) and placed on ice. Using 100% DMSO, 8 point, 3-fold dilution curves for each test compound was prepared starting at 200 uM. Similarly, an 8 point dose response curve was prepared of the control compound [(3R,5R)-3-butyl-3-ethyl-7,8-bis(methyloxy)-5-phenyl-2,3,4,5-tetrahydro-1,4-benzothiazepine 1,1-dioxide (Brieaddy, L. E. WO9605188, 1996)] starting at 1.8 mM. Drug plates were created by adding 3 uL of each concentration to a v-bottom 96-well plate then diluted 60-fold with 177 uL of assay buffer. Plates were removed from the incubator and allowed to cool to ambient temperature.
Quantity kind: IC50 (nM)
Express the result in nM but write the number alone.

The recorded IC50 for entry CCCC[C@]1(CC)CS(=O)(=O)c2cc(CN[C@@H](CCS(C)(=O)=O)C(=O)O)c(OC)cc2[C@@H](c2ccccc2)N1 equals 13

These entries and their values trace back to ChEMBL document CHEMBL3638854.
